# LYMPHOCYTE per entry
Species: Rattus norvegicus
Test: DrugMatrix - Regimen: Daily Repeat
Assay type: toxicity, organism-based, Sprague-Dawley
Parameters: regimen Daily Repeat, gender Male, age 6-8 weeks
Settings: in vivo, po, 10 mg/kg, 120 h, tissue Blood, route oral GAVAGE, dose level Low, time 5 day, vehicle .5 % CMC
valueType: LYMPHOCYTE

molecule	valueType	result
CC(=O)O[C@]1(C(C)=O)CC[C@H]2[C@@H]3C=C(Cl)C4=CC(=O)CC[C@]4(C)[C@H]3CC[C@@]21C [CHLORMADINONE ACETATE]	LYMPHOCYTE	91.67%
NS(=O)(=O)c1cc2c(cc1Cl)NCNS2(=O)=O [HYDROCHLOROTHIAZIDE]	LYMPHOCYTE	89.67%
COc1c(C)c2c(c(O)c1C/C=C(\C)CCC(=O)OCCN1CCOCC1)C(=O)OC2 [MYCOPHENOLATE MOFETIL]	LYMPHOCYTE	89.33%
O=C1CN=C(c2ccccc2)c2cc([N+](=O)[O-])ccc2N1	LYMPHOCYTE	92%

----------
Organism: Rattus norvegicus
Assay: DrugMatrix - Regimen: Daily Repeat
Type: toxicity, organism-based, Sprague-Dawley
Set-up: regimen Daily Repeat, gender Male, age 6-8 weeks
Settings: in vivo, po, 0 mg/kg, 72 h, tissue Blood, route oral GAVAGE, dose level Control, time 3 day, vehicle 100 % WATER
Recorded measurements of NEUTROPHIL, one per entry

compound	NEUTROPHIL (%)
C[C@]12Cc3c[nH]nc3C[C@@H]1CC[C@@H]1[C@@H]2CC[C@@]2(C)[C@H]1CC[C@]2(C)O	8
CN1CCN(C(=O)OC2c3nccnc3C(=O)N2c2ccc(Cl)cn2)CC1 (centres undefined)	8.33
Nc1ccc(S(=O)(=O)Nc2ccnn2-c2ccccc2)cc1	10.17
CC1COc2c(N3CCN(C)CC3)c(F)cc3c(=O)c(C(=O)O)cn1c23 (centres undefined)	7

----------
Organism: Rattus norvegicus
Assay: DrugMatrix - Regimen: Daily Repeat
Format: toxicity, organism-based, Sprague-Dawley
Design: regimen Daily Repeat, gender Male, age 6-8 weeks
Conditions: in vivo, po, 0 mg/kg, 120 h, tissue Plasma, route oral GAVAGE, dose level Control, time 5 day, […]
Response field label: string, one of met (CHOLESTEROL strictly below 60 mg/dL) or not met.

compound	categoryLabel
CC(C)(Oc1ccc(CCNC(=O)c2ccc(Cl)cc2)cc1)C(=O)O [BEZAFIBRATE]	not met
CN(C)CCCC1(c2ccc(F)cc2)OCc2cc(C#N)ccc21 (stereo not drawn) [CITALOPRAM]	not met
CC(C)n1c(/C=C/C(O)CC(O)CC(=O)O)c(-c2ccc(F)cc2)c2ccccc21 (stereo not drawn) [FLUVASTATIN]	met
CC(=O)[C@H]1CC[C@H]2[C@@H]3CCC4=CC(=O)CC[C@]4(C)[C@H]3CC[C@]12C [PROGESTERONE]	not met
COc1ccc2c(c1)c(CC(=O)OCC(=O)O)c(C)n2C(=O)c1ccc(Cl)cc1 [ACEMETACIN]	not met
COCc1c(C(C)C)nc(C(C)C)c(/C=C/[C@@H](O)C[C@@H](O)CC(=O)O)c1-c1ccc(F)cc1 [CERIVASTATIN]	met
Cn1cnc([N+](=O)[O-])c1Sc1ncnc2nc[nH]c12 [AZATHIOPRINE]	not met

----------
Species on record: Rattus norvegicus
Test: DrugMatrix - Regimen: Daily Repeat
Type: toxicity, organism-based, Sprague-Dawley
Design: regimen Daily Repeat, gender Male, age 6-8 weeks
Settings: in vivo, ip, 0 mg/kg, […], tissue Blood, route intraperitoneal, dose level Control, time 28 day, vehicle 100 % SALINE

substance	ABSOLUTE MONOCYTE, cells/µL
CARBOPLATIN	210
GOLD SODIUM THIOMALATE	210
CISPLATIN	210

----------
Species: Rattus norvegicus
Assay: DrugMatrix - Regimen: Daily Repeat
Format: toxicity, organism-based, Sprague-Dawley
Set-up: regimen Daily Repeat, gender Male, age 6-8 weeks
Conditions: in vivo, po, 0 mg/kg, 120 h, tissue Blood, route oral GAVAGE, dose level Control, time 5 day, […]
valueType: MEAN CORPUSCULAR HEMOGLOBIN CONCENTRATION (G/DL)

molecule	numericResult
CN(C)CCCC1(c2ccc(F)cc2)OCc2cc(C#N)ccc21 (stereo not given) [CITALOPRAM]	39.62
Oc1c(Cl)cc(Cl)cc1Sc1cc(Cl)cc(Cl)c1O [BITHIONOL]	39.92
COc1ccc2c(c1)c(CC(=O)OCC(=O)O)c(C)n2C(=O)c1ccc(Cl)cc1 [ACEMETACIN]	37.02
CCCC[C@@H](CC)COC(=O)c1ccccc1C(=O)OC[C@@H](CC)CCCC [BIS(2-ETHYLHEXYL)PHTHALATE]	39.08
C=CCN [ALLYLAMINE]	30.77
CC(C)(Oc1ccc(CCNC(=O)c2ccc(Cl)cc2)cc1)C(=O)O [BEZAFIBRATE]	31.8
COC1=CC(=O)C[C@@H](C)[C@]12Oc1c(Cl)c(OC)cc(OC)c1C2=O [GRISEOFULVIN]	39.42
CC1=C(/C=C/C(C)=C/C=C/C(C)=C\C(=O)O)C(C)(C)CCC1 [ISOTRETINOIN]	39.58
CC(C)n1c(/C=C/C(O)CC(O)CC(=O)O)c(-c2ccc(F)cc2)c2ccccc21 (stereo not given) [FLUVASTATIN]	39.92
c1ccc2[nH]c(-c3cscn3)nc2c1 [THIABENDAZOLE]	39.08
CC(=O)[C@H]1CC[C@H]2[C@@H]3CCC4=CC(=O)CC[C@]4(C)[C@H]3CC[C@]12C [PROGESTERONE]	39.62
Cn1cnc([N+](=O)[O-])c1Sc1ncnc2nc[nH]c12 [AZATHIOPRINE]	40.67
CSc1ccc2c(c1)N(CCC1CCCCN1C)c1ccccc1S2 (stereo not given) [THIORIDAZINE]	37.35
COCc1c(C(C)C)nc(C(C)C)c(/C=C/[C@@H](O)C[C@@H](O)CC(=O)O)c1-c1ccc(F)cc1 [CERIVASTATIN]	38.4
O=[N+]([O-])c1cc([As](=O)(O)O)ccc1O [ROXARSONE]	31.8

----------
Species on record: Rattus norvegicus
Test: DrugMatrix - Regimen: Daily Repeat
Format: toxicity, organism-based, Sprague-Dawley
Set-up: regimen Daily Repeat, gender Male, age 6-8 weeks
Conditions: in vivo, po, 0 mg/kg, 72 h, tissue Plasma, route oral GAVAGE, dose level Control, time 3 day, vehicle .5 % CMC
Entries and their measured SODIUM follow.

compound	SODIUM [MEQ/L]
CCC[C@@H]1C[C@@H](C(=O)N[C@@H]([C@H]2O[C@H](SC)[C@H](O)[C@@H](O)[C@H]2O)[C@@H](C)O)N(C)C1	142.22
CN1C(C(=O)Nc2ccccn2)=C(O)c2ccccc2S1(=O)=O	149.5
CCOC(=O)OC(C)OC1=C(C(=O)Nc2ccccn2)N(C)S(=O)(=O)c2ccccc21 (configuration not stated)	142.45
CN1CCC[C@@H]1CCO[C@](C)(c1ccccc1)c1ccc(Cl)cc1	141.65
CC(/C=C1\SC(=S)N(CC(=O)O)C1=O)=C\c1ccccc1	141.65
CC(C)[C@H](N)C(=O)OCCOCn1cnc2c(=O)[nH]c(N)nc21	141.02
CC[C@H]1OC(=O)[C@H](C)[C@@H](O[C@H]2C[C@@](C)(OC)[C@@H](O)[C@H](C)O2)[C@H](C)[C@@H](O[C@@H]2O[C@H](C)C[C@H](N(C)C)[C@H]2O)[C@](C)(O)C[C@@H](C)/C(=N\OCOCCOC)[C@H](C)[C@@H](O)[C@]1(C)O	148

----------
Species on record: Rattus norvegicus
Assay: DrugMatrix - Regimen: Daily Repeat
Assay type: toxicity, organism-based, Sprague-Dawley
Design: regimen Daily Repeat, gender Male, age 6-8 weeks
Conditions: in vivo, po, 0 mg/kg, 120 h, tissue Blood, route oral GAVAGE, dose level Control, time 5 day, […]

compound	unitOfMeasurement	MEAN CORPUSCULAR HEMOGLOBIN
COc1ccc2c(c1)c(CC(=O)OCC(=O)O)c(C)n2C(=O)c1ccc(Cl)cc1 [ACEMETACIN]	pg	22.73
Oc1c(Cl)cc(Cl)cc1Sc1cc(Cl)cc(Cl)c1O [BITHIONOL]	pg	25.28
CC(C)n1c(/C=C/C(O)CC(O)CC(=O)O)c(-c2ccc(F)cc2)c2ccccc21 (stereo unspecified) [FLUVASTATIN]	pg	25.28
COC1=CC(=O)C[C@@H](C)[C@]12Oc1c(Cl)c(OC)cc(OC)c1C2=O [GRISEOFULVIN]	pg	24.42
O=[N+]([O-])c1cc([As](=O)(O)O)ccc1O [ROXARSONE]	pg	20.58
Cn1cnc([N+](=O)[O-])c1Sc1ncnc2nc[nH]c12 [AZATHIOPRINE]	pg	24.93
